The entries below are paired with their reported Percent Effect.
TARGET SYSTEM: Polyketide synthase Pks13 (Mycobacterium tuberculosis (strain ATCC 25618 / H37Rv))
ASSAY DETAILS: Mycobacterium tuberculosis Polyketide synthase 13 Thioesterase (PKS13)
Format: functional
Set-up: scale not given: in the data most compounds retested in dose-response had high values
CONDITIONS USED: 30 µM
Hit rate of the full screen: of about 67,000 compounds, about 300 (0.45%) showed an effect of 50% or more. What follows is part of a selection rich in strong results, with near analogues and random picks from the rest.
MEASUREMENT TYPE: Percent Effect

                            compound_string                             target_system  result
0  Fc1ccc(CN2CCO[C@H]3[C@H](Oc4ccccn4)CC[C@@H]32)cc1  Polyketide synthase Pks13 (Mycobacterium tuberculosis (strain ATCC 25618 / H37Rv))   13.6%
1  Cc1ccc(NC(=O)c2nc3c(s2)CCCN3C(=O)C2CC2)cn1  Polyketide synthase Pks13 (Mycobacterium tuberculosis (strain ATCC 25618 / H37Rv))   56.3%
2  Cc1ccc(-c2ncc(C(=O)NCCNC(=O)C(C)C)s2)c(C)c1  Polyketide synthase Pks13 (Mycobacterium tuberculosis (strain ATCC 25618 / H37Rv))   1.54%
3  CN(C)C(=O)CO[C@H]1CN(Cc2ccsc2)[C@@H]2COC[C@H]12  Polyketide synthase Pks13 (Mycobacterium tuberculosis (strain ATCC 25618 / H37Rv))  -4.76%
4  Cc1ccnn1-c1ccc(C(=O)N2CCN(c3cnccn3)CC2)cc1  Polyketide synthase Pks13 (Mycobacterium tuberculosis (strain ATCC 25618 / H37Rv))   1.07%
5  NC(=O)N1CC[C@@H]2O[C@H](COCC(=O)N3CCCC3)CC[C@@H]21  Polyketide synthase Pks13 (Mycobacterium tuberculosis (strain ATCC 25618 / H37Rv))   9.98%
6  CN(C)S(=O)(=O)c1ccc(-c2nc(C#N)c(NC3CC3)o2)o1  Polyketide synthase Pks13 (Mycobacterium tuberculosis (strain ATCC 25618 / H37Rv))   73.3%
